assay: Toxicity liver stage against HepG2, at 10uM; format: cell-based; set-up: test concentration 10 uM, cell line HepG2-A16-CD81EGFP; conditions: human, HepG2-A16-CD81EGFP cells; read-out: INHIBITION
propertyMeasured: cytotoxicity at 10 µM (%)

In [3]: df
Out[3]:
                                   compound  units  resultvalue
0           CCCNC(=O)c1nc2c(o1)CN(C(C)=O)C2      %        -70.6
1  Cc1ccc(C(=O)N2CCC3(CC2)CC(NC(=O)C(C)C)CO3)cc1 (configuration not stated)      %        -1.89
2  Cc1cc(CS(=O)(=O)N(C)C(C)c2ccc(F)cc2)on1 (configuration not stated)      %         6.72
3  COc1ccc(C(=O)NS(=O)(=O)c2ccc(CNC(C)=O)s2)cc1      %         1.81
4  Cn1ccnc1CN1CCN(Cc2ccccc2)[C@@H]2CS(=O)(=O)C[C@@H]21      %        -3.41
5  O=C(N[C@@H]1CCNC[C@H]1O)c1ccc(-c2ccc(F)cc2)cc1      %        -6.29
6  Cc1n[nH]c(C2CN(C(=O)c3ccon3)CCO2)n1 (configuration not stated)      %        -8.27
